Cited source for all entries: PubChem BioAssay AID1963429

- Tested on: 126254-015-R-J1-PDC complex spheroid growth, % test/control
- Measurement description: Anticancer human tumor 126254-015-R-J1-PDC patient-derived soft tissue sarcoma cell line growth inhibition [Asc]
- Particulars: second compound 0.0316 µM; first compound 0.1 µM; stronger effect = lower value
Measurement label: viability, T/C (%)
Form entry: value (%) — number only.

Lab book: viability, T/C of Cn1ncnc1[C@H]1c2n[nH]c(=O)c3cc(F)cc(c23)N[C@@H]1c1ccc(F)cc1 + CNC(C)C(=O)NC1CN(S(=O)(=O)c2cccc(S(=O)(=O)N3CCC4CCC(C(=O)NC(c5ccccc5)c5ccccc5)N4C(=O)C(NC(=O)C(C)NC)C3)c2)CCC2CCC(C(=O)NC(c3ccccc3)c3ccccc3)N2C1=O noted as 58.1

* * *

- Test system: 126254-015-R-J1-PDC complex spheroid growth, % test/control
- Measurement description: Anticancer human tumor 126254-015-R-J1-PDC cell line growth inhibition [Asc]; active = viability on the fitted dose curve at most 10% of control; inactive = the rest;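 further: spheroids exposed to compound for seven days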
- Particulars: second compound 3.16 µM; first compound 1 µM
Allowed answers: 1.0 = active, 0.0 = inactive

COc1c(OCCCN2CCOCC2)ccc2c3n(c(=NC(=O)c4cnc(N)nc4)nc12)CCN3 + Cc1c(S(C)(=O)=O)c(-c2cc(F)cc(N3CCN(c4ccc(NS(=O)(=O)c5ccc(NC(CCN6CCC(C(=O)OCCCP(=O)(O)O)CC6)CSc6ccccc6)c(S(=O)(=O)C(F)(F)F)c5)cc4)CC3)c2)c(-c2ccc(Cl)cc2)n1C(C)C    1.0

# ---- query compound ----
Hi, do you know how CCN1CCN(Cc2ccc(Nc3ncc(F)c(-c4cc(F)c5nc(C)n(C(C)C)c5c4)n3)nc2)CC1 + Cc1c(S(C)(=O)=O)c(-c2cc(F)cc(N3CCN(c4ccc(NS(=O)(=O)c5ccc(NC(CCN6CCC(C(=O)OCCCP(=O)(O)O)CC6)CSc6ccccc6)c(S(=O)(=O)C(F)(F)F)c5)cc4)CC3)c2)c(-c2ccc(Cl)cc2)n1C(C)C came out in this test?
0.0

* * *

- System: 126254-015-R-J1-PDC complex spheroid growth, % test/control
- Measurement description: Anticancer human tumor 126254-015-R-J1-PDC cell line growth inhibition [Asc];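 further: spheroids exposed to compound for seven days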
- Particulars: curve of first compound; second compound 0.03 µM
- Text: Multicellular complex tumor spheroid response to apoptosis pathway targeting inhibitors Alrizomadlin, Pelcitoclax, and Dasminapant in combination with a variety of drugs and investigational agents in selected tumor cell lines […] Compounds. […] If the clinical Cmax for an agent had not been determined, the highest concentration tested was 10 microM. […]
Measurement label: IC50 (µM)
Form entry: value (µM) — number only.

Below, 2 compounds whose answers are already recorded.
COc1c(OCCCN2CCOCC2)ccc2c3n(c(=NC(=O)c4cnc(N)nc4)nc12)CCN3 + CCN1C(C(=O)NC23CCC(C(=O)O)(CC2)CC3)C(c2cccc(Cl)c2F)C2(C(=O)Nc3cc(Cl)ccc32)C12CCCCC2    0.0442
C=C(F)C(=O)N1CCN(c2nc(OCC3CCCN3C)nc3c2CCN(c2cccc4cccc(Cl)c24)C3)CC1CC#N (stereo not given) + CCN1C(C(=O)NC23CCC(C(=O)O)(CC2)CC3)C(c2cccc(Cl)c2F)C2(C(=O)Nc3cc(Cl)ccc32)C12CCCCC2    2.43

Would you kindly look at the next entry?
Lab book: IC50 of Cc1nc(N2CCC3(CC2)COC(C)C3N)c(CO)nc1Sc1ccnc(N)c1Cl (stereo not given) + CCN1C(C(=O)NC23CCC(C(=O)O)(CC2)CC3)C(c2cccc(Cl)c2F)C2(C(=O)Nc3cc(Cl)ccc32)C12CCCCC2 noted as 1.43
